Entry source: paper PMC7395068

# System: HepaRG spheroids
# Protocol Notes: Combined HCI (HCS) and cellular ATP 3D assay in HepaRG spheroids
# Setup Conditions: HepaRG; all endpoints; Cmax max used
Result Type: HepaRG Cmax max All

Look over these answered cases.
1) O=C1CN(/N=C/c2ccc([N+](=O)[O-])o2)C(=O)N1 [nitrofurantoin, reference compound]	+ve
2) CC(=O)Oc1ccccc1C(=O)O	+ve
3) CC(C)(C)NCC(O)COc1cccc2c1CC(O)C(O)C2 (centres unmarked)	-ve
4) CC(C)C(=O)Nc1ccc([N+](=O)[O-])c(C(F)(F)F)c1 [flutamide, reference compound]	+ve

Next:
Problem: Return reported HepaRG Cmax max All. Input molecule: Cc1c(C)c2c(c(C)c1O)CCC(C)(COc1ccc(CC3SC(=O)NC3=O)cc1)O2 (centres unmarked) [troglitazone, reference compound]
Result: +ve

---

Exercise: for every item that follows, state its recorded log10(minimal effective concentration).
# Test system: hLiMTs
# Protocol Notes: Combined HCI (HCS) and cellular ATP 3D assay in hLiMTs
# Setup Conditions: Homo sapiens, read-out: HCS endpoint MEC
Response schema: value (number) is log10 of minimal effective concentration in units of µM.

For each entry beneath this line, provide reported log10(minimal effective concentration).
1. Cc1ccc(N(CC2=NCCN2)c2cccc(O)c2)cc1
2. CCc1ccc(CCOc2ccc(CC3SC(=O)NC3=O)cc2)nc1 (stereo not shown) [pioglitazone, reference compound]
3. Nc1c2c(nc3ccccc13)CCCC2 [tacrine, reference compound]
4. CCCC(CCC)C(=O)O
5. CN1CCN(C2=Nc3cc(Cl)ccc3Nc3ccccc32)CC1

Result:
1: 1.94; 2: 0.73; 3: 1.59; 4: 3.20; 5: 0.75

---

# Tested on: HepaRG spheroids
# Protocol Notes: Combined HCI (HCS) and cellular ATP 3D assay in HepaRG spheroids
# Setup Conditions: HepaRG; all endpoints; Cmax min used
Result Type: HepaRG Cmax min All

1. CCN(CC)CC#CCOC(=O)C(O)(c1ccccc1)C1CCCCC1 (stereo not shown)	-ve
2. Cn1cnc([N+](=O)[O-])c1Sc1ncnc2nc[nH]c12	+ve
3. O=C1CC2(CCCC2)CC(=O)N1CCCCN1CCN(c2ncccn2)CC1 [buspirone, reference compound]	-ve
4. Cc1ccc(C(=O)c2cc(O)c(O)c([N+](=O)[O-])c2)cc1 [tolcapone, reference compound]	+ve

For each entry beneath this line, provide reported HepaRG Cmax min All.
1. CN(C)CCC(c1ccc(Cl)cc1)c1ccccn1 (stereo not shown)
2. CCN(CC)C(=O)/C(C#N)=C/c1cc(O)c(O)c([N+](=O)[O-])c1

Result:
1: -ve; 2: +ve

---

# Tested on: hLiMTs
# Protocol Notes: Combined HCI (HCS) and cellular ATP 3D assay in hLiMTs
# Setup Conditions: hLiMTs; ATP endpoint; cut-off <100x Avg Cmaxu
Result Type: hLiMTs <100x Avg Cmaxu ATP

Look over these answered cases.
1) CCOC(=O)CN[C@@H](C(=O)N1CC[C@H]1C(=O)NCc1ccc(/C(N)=N\O)cc1)C1CCCCC1	-ve
2) CCc1nn(CCCN2CCN(c3cccc(Cl)c3)CC2)c(=O)n1CCOc1ccccc1 [nefazodone, reference compound]	-ve
3) CC(COc1ccccc1)N(CCCl)Cc1ccccc1 (stereo not shown)	-ve
4) CN1CCN(C2=Nc3cc(Cl)ccc3Nc3ccccc32)CC1	-ve
5) O=C(O)Cc1ccccc1Nc1c(Cl)cccc1Cl	-ve

For each entry beneath this line, provide reported hLiMTs <100x Avg Cmaxu ATP.
1. CCN(CC)CC#CCOC(=O)C(O)(c1ccccc1)C1CCCCC1 (stereo not shown)
2. Nc1cc(N2CCCCC2)nc(N)[n+]1[O-]
3. CS(=O)(=O)CCNCc1ccc(-c2ccc3ncnc(Nc4ccc(OCc5cccc(F)c5)c(Cl)c4)c3c2)o1
4. CN(C)C(=N)N=C(N)N
5. CC(C)(C)NCC(O)COc1cccc2c1CC(O)C(O)C2 (stereo not shown)

Result:
1: -ve; 2: -ve; 3: -ve; 4: +ve (<100x Avg Cmaxu); 5: -ve

For each entry beneath this line, provide reported hLiMTs <100x Avg Cmaxu ATP.
1. CC(=O)N1CCN(c2ccc(OCC3COC(Cn4ccnc4)(c4ccc(Cl)cc4Cl)O3)cc2)CC1 (stereo not shown) [ketoconazole, reference compound]
2. O=C1CC2(CCCC2)CC(=O)N1CCCCN1CCN(c2ncccn2)CC1 [buspirone, reference compound]
3. C1CCC(C(CC2CCCCN2)C2CCCCC2)CC1 (stereo not shown)
4. CN(C)CCC(c1ccc(Cl)cc1)c1ccccn1 (stereo not shown)
5. CN(Cc1cnc2nc(N)nc(N)c2n1)c1ccc(C(=O)N[C@@H](CCC(=O)O)C(=O)O)cc1 [methotrexate, reference compound]
6. N[C@@H](Cc1cc(I)c(Oc2ccc(O)c(I)c2)c(I)c1)C(=O)O

Result:
+ve (<100x Avg Cmaxu)
-ve
+ve (<100x Avg Cmaxu)
-ve
-ve
-ve

For each entry beneath this line, provide reported hLiMTs <100x Avg Cmaxu ATP.
1. CN(C)C(=O)Oc1cccc([N+](C)(C)C)c1
2. O=C1CN(/N=C/c2ccc([N+](=O)[O-])o2)C(=O)N1 [nitrofurantoin, reference compound]
3. Cc1ccc(C(=O)c2cc(O)c(O)c([N+](=O)[O-])c2)cc1 [tolcapone, reference compound]
4. Cc1c(-c2ccccc2)oc2c(C(=O)OCCN3CCCCC3)cccc2c1=O [flavoxate]
5. CC/C(=C(\c1ccccc1)c1ccc(OCCN(C)C)cc1)c1ccccc1

Result:
1. -ve
2. +ve (<100x Avg Cmaxu)
3. -ve
4. -ve
5. -ve

For each entry beneath this line, provide reported hLiMTs <100x Avg Cmaxu ATP.
1. C#CCN(C)Cc1ccccc1
2. NNC(=O)c1ccncc1 [isoniazid, reference compound]
3. Cn1cnc([N+](=O)[O-])c1Sc1ncnc2nc[nH]c12
4. CC[C@H]1OC(=O)[C@H](C)[C@@H](O[C@H]2C[C@@](C)(OC)[C@@H](O)[C@H](C)O2)[C@H](C)[C@@H](O[C@@H]2O[C@H](C)C[C@H](N(C)C)[C@H]2O)[C@](C)(O)C[C@@H](C)C(=O)[C@H](C)[C@@H](O)[C@]1(C)O

Result:
1. -ve
2. -ve
3. +ve (<100x Avg Cmaxu)
4. -ve

---

# System: hLiMTs
# Protocol Notes: Combined HCI (HCS) and cellular ATP 3D assay in hLiMTs
# Setup Conditions: hLiMTs; ATP endpoint; cut-off <100x Avg Cmaxu
Result Type: hLiMTs <100x Avg Cmaxu ATP

Look over these answered cases.
1) Cc1c(C)c2c(c(C)c1O)CCC(C)(COc1ccc(CC3SC(=O)NC3=O)cc1)O2 (stereo not drawn) [troglitazone, reference compound]	-ve
2) NC(=O)N1c2ccccc2C=Cc2ccccc21 [carbamazepine, reference compound]	+ve (<100x Avg Cmaxu)
3) Cc1ccc(N(CC2=NCCN2)c2cccc(O)c2)cc1	-ve
4) CC(C)C(=O)Nc1ccc([N+](=O)[O-])c(C(F)(F)F)c1 [flutamide, reference compound]	+ve (<100x Avg Cmaxu)
5) C[N+](C)(C)CC(=O)O [betaine, reference compound]	-ve
6) CCN(CC)C(=O)/C(C#N)=C/c1cc(O)c(O)c([N+](=O)[O-])c1	-ve
7) CC(=O)Oc1ccccc1C(=O)O	+ve (<100x Avg Cmaxu)
8) CCN(CC)CCNC(=O)c1c(C)[nH]c(/C=C2\C(=O)Nc3ccc(F)cc32)c1C	-ve

Problem: Return reported hLiMTs <100x Avg Cmaxu ATP. Input compound: "CCCC(CCC)C(=O)O"
Result: -ve

---

# System: hLiMTs
# Protocol Notes: Combined HCI (HCS) and cellular ATP 3D assay in hLiMTs
# Setup Conditions: hLiMTs; all endpoints; cut-off <100x Avg Cmaxu
Result Type: hLiMTs <100x Avg Cmaxu All

Look over these answered cases.
1) C1CCC(C(CC2CCCCN2)C2CCCCC2)CC1 (stereo not drawn)	+ve (<100x Avg Cmaxu)
2) O=C(O)Cc1ccccc1Nc1c(Cl)cccc1Cl	-ve
3) Nc1cc(N2CCCCC2)nc(N)[n+]1[O-]	+ve (<100x Avg Cmaxu)
4) CCOC(=O)CN[C@@H](C(=O)N1CC[C@H]1C(=O)NCc1ccc(/C(N)=N\O)cc1)C1CCCCC1	-ve
5) CCN(CC)CC#CCOC(=O)C(O)(c1ccccc1)C1CCCCC1 (stereo not drawn)	-ve

For each entry beneath this line, provide reported hLiMTs <100x Avg Cmaxu All.
1. Cn1cnc([N+](=O)[O-])c1Sc1ncnc2nc[nH]c12
2. O=C1CC2(CCCC2)CC(=O)N1CCCCN1CCN(c2ncccn2)CC1 [buspirone, reference compound]
3. CN(C)C(=O)Oc1cccc([N+](C)(C)C)c1

Result:
1. +ve (<100x Avg Cmaxu)
2. -ve
3. -ve

For each entry beneath this line, provide reported hLiMTs <100x Avg Cmaxu All.
1. CN(Cc1cnc2nc(N)nc(N)c2n1)c1ccc(C(=O)N[C@@H](CCC(=O)O)C(=O)O)cc1 [methotrexate, reference compound]
2. Cc1ccc(C(=O)c2cc(O)c(O)c([N+](=O)[O-])c2)cc1 [tolcapone, reference compound]
3. CC(=O)Nc1ccc(O)cc1
4. CN(C)CCC(c1ccc(Cl)cc1)c1ccccn1 (stereo not drawn)
5. N[C@@H](Cc1cc(I)c(Oc2ccc(O)c(I)c2)c(I)c1)C(=O)O
6. Cc1c(C)c2c(c(C)c1O)CCC(C)(COc1ccc(CC3SC(=O)NC3=O)cc1)O2 (stereo not drawn) [troglitazone, reference compound]
7. C[N+](C)(C)CC(=O)O [betaine, reference compound]
8. CC/C(=C(\c1ccccc1)c1ccc(OCCN(C)C)cc1)c1ccccc1

Result:
+ve (<100x Avg Cmaxu)
-ve
+ve (<100x Avg Cmaxu)
-ve
-ve
-ve
-ve
-ve

For each entry beneath this line, provide reported hLiMTs <100x Avg Cmaxu All.
1. CNC1(C)C2CCC(C2)C1(C)C (stereo not drawn)
2. CCN(CC)CCNC(=O)c1c(C)[nH]c(/C=C2\C(=O)Nc3ccc(F)cc32)c1C

Result:
["-ve", "+ve (<100x Avg Cmaxu)"]
